# ASSAY_INFO: Conversion efficiency / PK profile after IV dose in rats (Compounds No. 5 and No. 7)
# Type: in vivo
# APPLIED_CONDITIONS: Rat, plasma, parent compound IV 1 mg/kg; read-out: Parent compound AUCinf
METRIC: AUC(0-inf) (ng·h/mL)

A. CCc1[nH]c(C(=O)N[C@@H]2CCN(c3nnc([C@H](O)CO)s3)C[C@@H]2OC)nc1Cl [Compound C]
B. CCc1[nH]c(C(=O)N[C@@H]2CCN(c3nnc(C(C)O)s3)C[C@@H]2OC)nc1Cl (some centres unmarked) [Compound D]
Which is greater in AUC(0-inf), the first item A or the second item B ? // caller expects the label of the chosen entry
B
(B: 3110 ng·h/mL, A: 990 ng·h/mL)

From: patent US10752647B2
